Values compiled from ChEMBL document CHEMBL1124199.

# SYSTEM TESTED: GABA-A receptor; anion channel
# METHOD NOTES: Binding affinity against benzodiazepine (BZ) receptor by displacing [3H]diazepam in cerebral cortex of Wistar rats

>  <COMPOUND>
Cc1csc(-n2[nH]c3c(cnc4ccccc43)c2=O)c1

>  <Ki [nM]>
0.48

$$$$
>  <COMPOUND>
Cc1ccc2c(c1)ncc1c(=O)n(-c3csc(C)c3)[nH]c12

>  <Ki [nM]>
0.96

$$$$
>  <COMPOUND>
Cc1ccc2c(c1)ncc1c(=O)n(-c3ccc(C)s3)[nH]c12

>  <Ki [nM]>
2.34

$$$$
>  <COMPOUND>
CCn1cc2c(=O)n(-c3csc(C)c3)nc-2c2ccccc21

>  <Ki [nM]>
436

$$$$
>  <COMPOUND>
COC(=O)c1sccc1-n1[nH]c2c(cnc3ccccc32)c1=O

>  <Ki [nM]>
142

$$$$
>  <COMPOUND>
Cc1ccc(-n2[nH]c3c(cnc4cc(F)ccc43)c2=O)s1

>  <Ki [nM]>
0.65

$$$$
>  <COMPOUND>
Cc1cc(-n2[nH]c3c(cnc4ccccc43)c2=O)c(Br)s1

>  <Ki [nM]>
27.2

$$$$
>  <COMPOUND>
Cc1cc(-n2[nH]c3c(cnc4ccccc43)c2=O)sc1C

>  <Ki [nM]>
0.73

$$$$
>  <COMPOUND>
CCCCc1ccc(-n2[nH]c3c(cnc4ccccc43)c2=O)s1

>  <Ki [nM]>
1.48

$$$$
>  <COMPOUND>
Cc1cc(-n2[nH]c3c(cnc4c(Cl)cccc43)c2=O)cs1

>  <Ki [nM]>
0.63

$$$$
>  <COMPOUND>
Cc1cscc1-n1[nH]c2c(cnc3ccccc32)c1=O

>  <Ki [nM]>
6.86

$$$$
>  <COMPOUND>
O=c1c2cnc3ccccc3c2[nH]n1-c1ccc(Cl)s1

>  <Ki [nM]>
2.48

$$$$
>  <COMPOUND>
CCc1cc(-n2[nH]c3c(cnc4ccccc43)c2=O)cs1

>  <Ki [nM]>
0.41

$$$$
>  <COMPOUND>
Cc1cc(C(=O)O)c(-n2[nH]c3c(cnc4ccccc43)c2=O)s1

>  <Ki [nM]>
21.6

$$$$
>  <COMPOUND>
O=C1C2C=Nc3ccccc3C2=NN1c1ccc(Cl)cc1 (centres undefined) [CGS-9896]

>  <Ki [nM]>
0.83

$$$$
>  <COMPOUND>
O=c1c2cnc3ccccc3c2[nH]n1-c1csc(Cl)c1

>  <Ki [nM]>
0.73

$$$$
>  <COMPOUND>
Cc1ccc(-n2[nH]c3c(cnc4c(Cl)cccc43)c2=O)s1

>  <Ki [nM]>
0.75

$$$$
>  <COMPOUND>
CCc1ccc(-n2[nH]c3c(cnc4ccccc43)c2=O)s1

>  <Ki [nM]>
1.02

$$$$
>  <COMPOUND>
Cc1cc(-n2[nH]c3c(cnc4ccccc43)c2=O)c(Cl)s1

>  <Ki [nM]>
4.69

$$$$
>  <COMPOUND>
Cc1ccc(-n2[nH]c3c(cnc4c(C)cccc43)c2=O)s1

>  <Ki [nM]>
0.83

$$$$
>  <COMPOUND>
Cc1cc(-n2[nH]c3c(cnc4c(F)cccc43)c2=O)cs1

>  <Ki [nM]>
0.37

$$$$
>  <COMPOUND>
Cc1cc(-n2[nH]c3c(cnc4cc(F)ccc43)c2=O)cs1

>  <Ki [nM]>
0.64

$$$$
>  <COMPOUND>
O=c1c2cnc3ccccc3c2[nH]n1-c1cccs1

>  <Ki [nM]>
0.41

$$$$
>  <COMPOUND>
Cc1cc(-n2[nH]c3c(cnc4c(C)cccc43)c2=O)cs1

>  <Ki [nM]>
0.38

$$$$

---

# SYSTEM TESTED: GABA-A receptor; anion channel
# METHOD NOTES: Binding affinity against benzodiazepine (BZ) receptor by displacing [3H]diazepam in cerebral cortex of Wistar rats
pKi: −log10 of the molar value.
pKi below 8 gives false; pKi at or above it gives true.

>  <CHEM SMILES>
O=c1c2cnc3ccccc3c2[nH]n1-c1ccsc1

>  <CLASSIFICATION>
true

$$$$
>  <CHEM SMILES>
O=C(O)c1sccc1-n1[nH]c2c(cnc3ccccc32)c1=O

>  <CLASSIFICATION>
false

$$$$
>  <CHEM SMILES>
Cc1cc(-n2[nH]c3c(cnc4cc(Cl)ccc43)c2=O)cs1

>  <CLASSIFICATION>
true

$$$$
>  <CHEM SMILES>
Cc1ccc(-n2[nH]c3c(cnc4cc(Cl)ccc43)c2=O)s1

>  <CLASSIFICATION>
true

$$$$
>  <CHEM SMILES>
Cc1ccc(-n2[nH]c3c(cnc4c(F)cccc43)c2=O)s1

>  <CLASSIFICATION>
true

$$$$
>  <CHEM SMILES>
Cc1cc(-n2nc3c4ccccc4n(C)cc-3c2=O)cs1

>  <CLASSIFICATION>
false

$$$$
>  <CHEM SMILES>
Cc1ccc(-n2nc3c4ccccc4n(C)cc-3c2=O)s1

>  <CLASSIFICATION>
false

$$$$
